- Test system: Plasmodium falciparum
- test-description: Antimalarial activity against […]-resistant Plasmodium falciparum TM91C235 assessed as [3H]hypoxanthine incorporation
- Assay type: functional, organism-based
# maps each entry to its IC50
Give your result in nM as a bare value.

>>> df
                                   compound  unit_of_measurement  readout_value
0  OC(c1cc(C(F)(F)F)nc2c(C(F)(F)F)cccc12)C1CCCCN1 (configuration not stated)                   nM           55.8

Q. // query IC50 value for entry Clc1ccc2c(N3CCNCCN(c4ccnc5cc(Cl)ccc45)CCNCC3)ccnc2c1
A. 2.5
